- System tested: Thymidylate synthase (Homo sapiens, UniProt P04818)
- Sequence (P04818 whole entry): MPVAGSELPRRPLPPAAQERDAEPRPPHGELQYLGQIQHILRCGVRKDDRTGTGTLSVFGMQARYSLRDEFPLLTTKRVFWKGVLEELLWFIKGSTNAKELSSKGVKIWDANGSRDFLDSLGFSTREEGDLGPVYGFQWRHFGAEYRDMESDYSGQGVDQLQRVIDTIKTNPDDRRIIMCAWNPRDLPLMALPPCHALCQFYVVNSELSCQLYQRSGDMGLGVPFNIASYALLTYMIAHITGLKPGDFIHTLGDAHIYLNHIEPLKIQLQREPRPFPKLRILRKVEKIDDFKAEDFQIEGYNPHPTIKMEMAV
Measured attribute: IC50 (nM)

Cc1sc2nc(N)[nH]c(=O)c2c1Sc1ccc2ccccc2c1 120
Cc1sc2nc(N)[nH]c(=O)c2c1Sc1ccncc1 280
Cc1sc2nc(N)[nH]c(=O)c2c1Sc1cc(Cl)cc(Cl)c1 1000
Cc1sc2nc(N)[nH]c(=O)c2c1Sc1ccc(Cl)c(Cl)c1 110

---

Here's what we have: IC50 numbers for Bifunctional dihydrofolate reductase-thymidylate synthase (Toxoplasma gondii).
Measured attribute: IC50 (nM)

Cc1sc2nc(N)[nH]c(=O)c2c1Sc1ccncc1 1400
Cc1sc2nc(N)[nH]c(=O)c2c1Sc1cc(Cl)cc(Cl)c1 2300
Cc1sc2nc(N)[nH]c(=O)c2c1Sc1ccc(Cl)cc1 2600
Cc1sc2nc(N)[nH]c(=O)c2c1Sc1ccccc1 8400
Cc1sc2nc(N)[nH]c(=O)c2c1Sc1ccc2ccccc2c1 1200
Cc1sc2nc(N)[nH]c(=O)c2c1Sc1ccc(Cl)c(Cl)c1 1200

---

- System tested: Bifunctional dihydrofolate reductase-thymidylate synthase (Toxoplasma gondii, UniProt Q07422)
- Sequence (Q07422 whole entry): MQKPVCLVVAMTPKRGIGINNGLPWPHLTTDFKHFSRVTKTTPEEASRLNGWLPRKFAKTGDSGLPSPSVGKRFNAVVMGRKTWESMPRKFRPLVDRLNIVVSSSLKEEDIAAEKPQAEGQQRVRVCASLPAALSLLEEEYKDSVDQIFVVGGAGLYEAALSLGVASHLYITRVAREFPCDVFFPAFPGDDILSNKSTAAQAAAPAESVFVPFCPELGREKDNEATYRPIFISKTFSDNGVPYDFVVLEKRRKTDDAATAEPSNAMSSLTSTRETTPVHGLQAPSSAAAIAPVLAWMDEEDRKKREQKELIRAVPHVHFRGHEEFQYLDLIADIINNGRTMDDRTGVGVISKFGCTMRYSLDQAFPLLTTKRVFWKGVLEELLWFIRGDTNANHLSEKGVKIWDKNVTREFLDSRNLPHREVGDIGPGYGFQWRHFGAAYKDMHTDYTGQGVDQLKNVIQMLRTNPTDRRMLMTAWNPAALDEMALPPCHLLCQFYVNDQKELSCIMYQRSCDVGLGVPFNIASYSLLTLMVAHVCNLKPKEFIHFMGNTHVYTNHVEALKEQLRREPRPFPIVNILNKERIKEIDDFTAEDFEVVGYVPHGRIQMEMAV
Hi! Could you tag entries with IC50 below 40 nM as Yes, and those at or above as No? Much appreciated.

Cc1sc2nc(N)[nH]c(=O)c2c1Sc1ccncc1 Yes
Cc1sc2nc(N)[nH]c(=O)c2c1Sc1cc(Cl)cc(Cl)c1 No
Cc1sc2nc(N)[nH]c(=O)c2c1Sc1ccc(Cl)c(Cl)c1 Yes
Cc1sc2nc(N)[nH]c(=O)c2c1Sc1ccc2ccccc2c1 No
Cc1sc2nc(N)[nH]c(=O)c2c1Sc1ccc(Cl)cc1 Yes
Cc1sc2nc(N)[nH]c(=O)c2c1Sc1ccccc1 No
